Measured EC50 accompanies every entry in the list below.
Test system: HCT-15
PROCEDURE TEXT: Cytotoxicity against human HCT15 cells
Type: functional
MEASUREMENT CONTEXT: read-out: ED50 (the source's name)
Please give a number only; it is taken to be in µg/mL.

COMPOUND: COC1C=C(CCC/C(C)=C/C=C/[C@@H](C)CC/C=C(/C)C[C@H]2OC(=O)C(C)=C2O)C(=O)O1 (some centres not stated)
QUANTITATIVE RESULT: 33

COMPOUND: COC(=O)[C@H](O)C/C(C)=C\CC[C@H](C)/C=C/C=C(\C)CCCC1=CC(=O)O[C@H]1O
QUANTITATIVE RESULT: 21.7

COMPOUND: CC(=O)C(O)C(O)C/C(C)=C\CC[C@H](C)/C=C/C=C(\C)CCCC1=CC(=O)OC1O (some centres not stated)
QUANTITATIVE RESULT: 4.6

COMPOUND: C/C(=C\CCc1ccoc1)C[C@@H]1C=C(C/C=C/c2ccoc2)C(=O)O1
QUANTITATIVE RESULT: 4.2

Please find the next compound below.
# input Kindly indicate its recorded EC50. Item: "COc1cccc2c1C(=O)c1c(O)c3c(c(O)c1C2=O)C[C@@](O)(C(=O)CO)C[C@@H]3O[C@H]1C[C@H](N)[C@H](O)[C@H](C)O1"
# output 0.24

----------
Test system: XF498
PROCEDURE TEXT: Cytotoxicity against human XF498 cells
Assay type: functional
MEASUREMENT CONTEXT: read-out: ED50 (the source's name)
PARAMETER MEASURED: EC50

Below: 2 compounds and their reported EC50.
COMPOUND: COC(=O)[C@H](O)C/C(C)=C\CC[C@H](C)/C=C/C=C(\C)CCCC1=CC(=O)O[C@H]1O
EC50: > 30 µg/mL
//
COMPOUND: CC(=O)C(O)C(O)C/C(C)=C\CC[C@H](C)/C=C/C=C(\C)CCCC1=CC(=O)OC1O (stereo partly drawn)
EC50: 11.5 µg/mL

// switching to the query compound
# input Fill in EC50 for COC1C=C(CCC/C(C)=C/C=C/[C@@H](C)CC/C=C(/C)C[C@H]2OC(=O)C(C)=C2O)C(=O)O1 (stereo partly drawn) tested with XF498.
# output > 30 µg/mL

----------
Tested on: XF498
PROCEDURE TEXT: Cytotoxicity against human XF498 cells
Assay type: functional
MEASUREMENT CONTEXT: read-out: ED50 (the source's name)
PARAMETER MEASURED: EC50 (µg/mL)
// units = µg/mL; emit number, no label

MOLECULAR STRING: C/C(=C\CCc1ccoc1)C[C@@H]1C=C(C/C=C/c2ccoc2)C(=O)O1
QUANTITATIVE RESULT: 11.8

Proceed to the following item.
# input Annotate the compound "COc1cccc2c1C(=O)c1c(O)c3c(c(O)c1C2=O)C[C@@](O)(C(=O)CO)C[C@@H]3O[C@H]1C[C@H](N)[C@H](O)[C@H](C)O1" with its measured EC50.
# output 0.19
